I'd appreciate it if you could supply Anti-CD28 Fab signal (phage binding ELISA) values for the items below.
- system_name: Anti-CD28 Fab (SEQ ID NOs: 696, 697)
- Sequence (VH, as listed by the source, chain 1 of 2): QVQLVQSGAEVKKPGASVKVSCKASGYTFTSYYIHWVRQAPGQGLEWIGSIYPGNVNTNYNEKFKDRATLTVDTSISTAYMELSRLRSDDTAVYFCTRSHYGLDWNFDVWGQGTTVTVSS
- Sequence (VL, as listed by the source, chain 2 of 2): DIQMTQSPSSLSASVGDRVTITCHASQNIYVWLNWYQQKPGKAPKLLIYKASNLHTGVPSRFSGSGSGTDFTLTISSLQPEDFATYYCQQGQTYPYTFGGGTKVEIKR
- experiment_summary: phage binding ELISA; biotinylated anti-CD28 Fab on neutravidin plate, clonal phage supernatant, anti-M13 HRP detection
Answers are plain numbers.

For every item in the list below, what is its measured Anti-CD28 Fab signal (phage binding ELISA)?
1. YCDGHLVEYMSKCL [Phage-730]
2. YCDGHSAEYMQKCL [Phage-729]
3. YCEGHLPIYLSKCL [Phage-735]
4. YCAGHLEIYMNKCL [Phage-733]
5. YCDGHSSEYMIKCL [Phage-727]
6. YCEGHLSQYMEKCL [Phage-731]

Ans:
1. 1.95
2. 1.95
3. 1.94
4. 1.94
5. 1.95
6. 1.95

Respectfully, I request Anti-CD28 Fab signal (phage binding ELISA) for each entry included below.
1. YCEGHLSEYMAKCL [Phage-734]
2. YCDGHLEQYRAKCL [Phage-723]
3. YCDGHSALYMWKCL [Phage-726]
4. YCDGHSPEHIRKCL [Phage-732]
5. YCDGHLIEYMYKCL [Phage-728]

Ans:
1: 1.94; 2: 1.96; 3: 1.96; 4: 1.94; 5: 1.95

Give Anti-CD28 Fab signal (phage binding ELISA) for all binders that follow.
1. YCDGHLPEYLGKCL [Phage-724]
2. YCAGHSVEYMAKCL [Phage-725]

Ans:
[1.96, 1.96]
